System: EPSPS (5-enolpyruvylshikimate-3-phosphate synthase)
Construct: native enzyme extracted from leaf tissue, not purified to homogeneity, activity per total soluble protein
assay_comment: EPSPS activity by phosphate release (EnzChek Phosphate Assay), leaf extract
Type: biochemical, Steinchisma laxum
recorded_conditions: S population; glyphosate 0-1000 µM; read-out: I50
property_label: IC50

Asked: # get_value(readout='IC50', item= O=C(O)CNCP(=O)(O)O [glyphosate, N-(phosphonomethyl) glycine] )
Given back: 980 nM

Sourced from paper PMC10534422
